# Tested on: HL-60
# Assay Protocol: Cytotoxicity against human HL60 cells assessed as decrease in cell viability after 4 days by MTT assay
# Format: functional, cell-based
# Condition Summary: HL-60, 96 h
pIC50: −log10 of the molar value.
Recorded pIC50, one value per entry.

These recorded examples may help you get a feel for the data.
- C=C1C[C@]23C[C@@]1(O)CC[C@H]2c1ccc(OS(=O)(=O)c2ccc(C)cc2)c(C)c1[C@@H]3Cn1cc(-c2ccc(Br)cc2)nn1: < 4.70
- C=C1C[C@]23C[C@@]1(O)CC[C@@H]2c1cccc(C)c1[C@@H]3Cn1cc(-c2ccccn2)nn1: < 4.70
- C=C1C[C@]23C[C@@]1(O)CC[C@H]2c1ccc(O)c(C)c1[C@@H]3Cn1cc(-c2ccc(Br)cc2)nn1: < 4.70
- C=C1C(=O)[C@]23C[C@@]1(O)CC[C@H]2c1ccc(OS(=O)(=O)c2ccc(C)cc2)c(C)c1[C@@H]3Cn1cc(-c2ccc(F)cc2)nn1: 5.89
- C=C1C(=O)[C@]23C[C@@]1(O)CC[C@H]2c1ccc(OS(=O)(=O)c2ccc(C)cc2)c(C)c1[C@@H]3Cn1cc(-c2ccc(OC)cc2)nn1: 5.99

I have this compound here, `C=C1C[C@]23C[C@@]1(O)CC[C@@H]2c1cccc(C)c1[C@@H]3Cn1cc(-c2ccc(Br)cc2)nn1` , and I need its recorded pIC50.
< 4.70

I have this compound here, `Cc1c(O)ccc2c1[C@H](Cn1cc(-c3ccccc3)nn1)[C@@]13CC(=O)[C@@](C)(CC[C@@H]21)C3` , and I need its recorded pIC50.
< 4.70

I have this compound here, `C=C1C[C@]23C[C@@]1(O)CC[C@@H]2c1cccc(C)c1[C@@H]3Cn1cc(-c2ccc(Cl)cc2)nn1` , and I need its recorded pIC50.
< 4.70

I have this compound here, `C=C1C[C@]23C[C@@]1(O)CC[C@@H]2c1cccc(C)c1[C@@H]3Cn1cc(-c2ccc(F)cc2)nn1` , and I need its recorded pIC50.
< 4.70

I have this compound here, `C=C1C(=O)[C@]23C[C@@]1(O)CC[C@H]2c1ccc(OS(=O)(=O)c2ccc(C)cc2)c(C)c1[C@@H]3Cn1cc(-c2ccc(Cl)cc2)nn1` , and I need its recorded pIC50.
5.90
